Reference for the values: paper PMC9227096

- assay target: Electrophorus electricus AChE (EeAChE) (Electrophorus electricus, UniProt O42275)
- Construct: purchased Sigma-Aldrich (Milan, Italy)
- Sequence (O42275 24-633): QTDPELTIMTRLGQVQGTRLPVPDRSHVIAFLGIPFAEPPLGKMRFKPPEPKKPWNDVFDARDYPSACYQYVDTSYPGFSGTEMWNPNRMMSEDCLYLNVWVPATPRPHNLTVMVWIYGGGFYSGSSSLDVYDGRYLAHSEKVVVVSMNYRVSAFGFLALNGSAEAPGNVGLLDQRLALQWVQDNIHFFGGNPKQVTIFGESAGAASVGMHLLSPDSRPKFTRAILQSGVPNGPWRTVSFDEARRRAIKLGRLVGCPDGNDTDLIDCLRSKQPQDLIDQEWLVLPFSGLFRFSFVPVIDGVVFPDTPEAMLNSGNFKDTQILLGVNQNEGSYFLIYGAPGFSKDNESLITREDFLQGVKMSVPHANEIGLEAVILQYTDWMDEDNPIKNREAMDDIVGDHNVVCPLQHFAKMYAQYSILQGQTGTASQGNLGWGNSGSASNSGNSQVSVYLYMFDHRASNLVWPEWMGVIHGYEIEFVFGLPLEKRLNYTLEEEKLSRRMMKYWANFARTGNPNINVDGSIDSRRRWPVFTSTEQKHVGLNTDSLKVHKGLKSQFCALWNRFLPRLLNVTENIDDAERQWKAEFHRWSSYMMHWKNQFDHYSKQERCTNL
- experimental details: Ellman's spectrophotometric method, percent inhibition of EeAChE (zero time and after 1 h incubation)
- Assay type: biochemical
- condition parameters: 1 h, read-out: % Inhibition vs. EeAChE ± SD, [I] = 9 µM, t = 1 h incubation at 25 °C
measured attribute: inhibition at 9 µM (%)
Note: unit % is implicit; provide only the numeric part.

Worked set:
Reported Electrophorus electricus AChE (EeAChE) (Electrophorus electricus, UniProt O42275) inhibition at 9 µM for item O=C(NCCCCCCNc1ncccn1)OCc1ccccc1 [Compound 17] was 10.9

Assay Electrophorus electricus AChE (EeAChE) (Electrophorus electricus, UniProt O42275), sample O=C(NCCCCCCNc1ccccn1)Oc1ccccc1 [Compound 18] , inhibition at 9 µM read: 41.6

Record O=C(NCCCCCCNc1ccccn1)OCc1ccccc1 [Compound 19] has Electrophorus electricus AChE (EeAChE) (Electrophorus electricus, UniProt O42275) inhibition at 9 µM equal to 45.4

Next molecule, inhibition at 9 µM to be filled in.
Tested on Electrophorus electricus AChE (EeAChE) (Electrophorus electricus, UniProt O42275): O=C(NCCCCCCNc1ncccn1)Oc1ccccc1 [Compound 16] . Observed inhibition at 9 µM: 7.2
